Reported TGI values for a set of molecules
System: OVCAR-3 ovarian
ASSAY NAME: NCI tumour cell line growth inhibition, 48 h
MEASURED ATTRIBUTE: TGI

INSERT INTO assay_data (molecule, measured_on, observed_measurement) VALUES
  ('Cc1ccc(NC(=O)c2sc3nc(C)c(C(O)c4ccccc4)cc3c2N)cc1 (stereo not given)', 'OVCAR-3 ovarian', '11.4 µM'),
  ('COC/C=C\[C@]1(O)CCCC[C@@H]1CC(OC)OC', 'OVCAR-3 ovarian', '> 100 µM'),
  ('COc1ccc(OC)c(C(=O)c2oc3ccc(Br)cc3c2N)c1', 'OVCAR-3 ovarian', '3.28 µM'),
  ('NC(CCC(=O)O)C(=O)N1CCN(c2nc(N3CCCC3)c3nc(Cl)c(NCc4ccccc4)nc3n2)CC1 (stereo not given)', 'OVCAR-3 ovarian', '22.9 µM'),
  ('CC(C)c1ccc(C(c2ccc(OCC(=O)O)cc2)c2ccc(C(C)C)cc(=O)c2O)c(O)c(=O)c1', 'OVCAR-3 ovarian', '8.31 µM'),
  ('Cc1ccc(NC(=O)c2cccc(OP(=O)(O)Nc3ccc(C)cc3)c2)cc1', 'OVCAR-3 ovarian', '> 100 µM'),
  ('COc1ccc(O)c(/C(C)=N/NC(=S)N(C)C)c1', 'OVCAR-3 ovarian', '> 100 µM'),
  ('O=C1NCCCNCCCNCCCNC(=O)c2cccc1n2', 'OVCAR-3 ovarian', '> 100 µM'),
  ('CNc1nc2n(CCO)c(-c3ccccc3)c(-c3ccccc3)nc-2c(=O)n1', 'OVCAR-3 ovarian', '> 50 µM'),
  ('O=C1CCCC2(c3ccccc3)Nc3ccccc3N12 (stereo not given)', 'OVCAR-3 ovarian', '> 100 µM'),
  ('CSc1nc2cc(S(=O)(=O)N3CCCCC3)ccc2s1', 'OVCAR-3 ovarian', '> 100 µM'),
  ('C=C1C(=O)O[C@H]2[C@H]1CC/C(COC(=O)c1cc3ccccc3s1)=C\CC[C@@]1(C)O[C@@H]21', 'OVCAR-3 ovarian', '1.66 µM'),
  ('CCOP(=O)(O)C1C(CO)OC(n2ccc(=O)[nH]c2=O)C1O (stereo not given)', 'OVCAR-3 ovarian', '> 100 µM'),
  ('CN(/N=C/c1ccc(OCc2cccc(COc3ccc(C=O)cc3)n2)cc1)c1cnn(-c2ccc(Cl)cc2Cl)c(=O)c1Cl', 'OVCAR-3 ovarian', '> 100 µM'),
  ('O=C(/C=C/c1c(O)ccc2ccccc12)c1ccccc1', 'OVCAR-3 ovarian', '> 100 µM');

---

Listing of entries alongside the reported TGI.
System: SN12C renal
ASSAY NAME: NCI tumour cell line growth inhibition, 48 h
MEASURED ATTRIBUTE: TGI

INSERT INTO measurements (compound, measured_attribute, observed_measurement) VALUES
  ('CN(C)C(c1ccccc1)C(O)c1ccccc1 (stereo not drawn)', 'TGI', '> 100 µM'),
  ('CCn1c(SCC(=O)NNC(=S)Nc2ccc(C)cc2)nc2ccccc2c1=O', 'TGI', '> 100 µM'),
  ('Cc1cccc2c(N)c3cccc(C(=O)NCC[N+](C)(C)Cc4c([N+](=O)[O-])ncn4C)c3nc12', 'TGI', '> 100 µM'),
  ('COc1ccc(CNc2nc3cc(C(F)(F)F)ccc3nc2C)cc1OC', 'TGI', '> 100 µM'),
  ('COc1cc2c(c(OC)c1OC)C(=O)[C@@H]1c3ccc([N+](=O)[O-])cc3C(=O)N(CCCBr)[C@H]21', 'TGI', '29.9 µM'),
  ('COc1ccc(-n2cc(-c3cc(OC)c(OC)c(OC)c3)[nH]c2=O)cc1Cl', 'TGI', '> 100 µM'),
  ('COC(=O)C(=Cc1cc(OC)c(OC)c(OC)c1-c1cc2c(cc1C(C)=O)OCO2)C(=O)OC', 'TGI', '58.8 µM'),
  ('COc1cc(OC)c2c(=O)c(OC)c(-c3ccc4c(c3)OCO4)oc2c1', 'TGI', '> 100 µM');
